Quick list: selectivity ratio per entry.
# assay_details: Selectivity index, ratio of IC50 for human HL7702 cells to IC50 for human HepG2 cells
# Format: toxicity
# details: HL7702 cells and HepG2 cells, read-out: Ratio IC50
The answer should be written as a number, with no unit following it.

compound=NCCCCNCCCCNCCCCN1C(=O)c2cccc3cc(NC(=O)CN)cc(c23)C1=O data_value=4.77

(Q) Identify measured selectivity ratio corresponding to CN(C)CCN1C(=O)c2cccc3cc(N)cc(c23)C1=O [AMONAFIDE]
(A) 1.23

###

Quick list: selectivity ratio per entry.
# assay_details: Selectivity index, ratio of IC50 for human HL7702 cells to IC50 for human Huh-7 cells
# Type: toxicity
# details: HL7702 cells and Huh-7 cells, read-out: Ratio IC50
The answer should be written as a number, with no unit following it.

compound=NCCCCNCCCCNCCCCN1C(=O)c2cccc3cc(NC(=O)CN)cc(c23)C1=O data_value=6.43

(Q) Identify measured selectivity ratio corresponding to CN(C)CCN1C(=O)c2cccc3cc(N)cc(c23)C1=O [AMONAFIDE]
(A) 1.36

###

# Test system: L02
# assay_details: Cytotoxicity against human HL7702 cells assessed as inhibition of cell growth measured after 24 hrs by MTT assay
# Assay type: cell-based
# details: L02, 24 h
measured_parameter: pIC50
Just the number, please; pIC50 means minus log10 of the concentration in mol/L.

molecule="CN(C)CCN1C(=O)c2cccc3cc(N)cc(c23)C1=O [AMONAFIDE]" measured_parameter=pIC50 data_value=4.94

# evaluate next
(Q) Identify measured pIC50 corresponding to NCCCCNCCCCNCCCCN1C(=O)c2cccc3cc(NC(=O)CN)cc(c23)C1=O
(A) 5.20

Measured values drawn from ChEMBL document CHEMBL4842322 for this set.
